Origin of the recorded values: the supplement of paper PMC6555819

tested on: RARa homodimer (NR concentration 270 nM); assay: PBM binding z-score (relative to random genomic background probes); higher = stronger binding; sequences stand for … in GC…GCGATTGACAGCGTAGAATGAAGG
# key: entry, value: PBM binding z-score
Give your answer as a number; write no unit.

The examples below pair each entry with its known result.
>>> df
                         sequencecode    value
0  CAAACTAGGTCATTGACAGGACAGTGAATAGTAA    0.262
1  TCATATAGGTAAATGCTAGGTGAACGTCCGATCT    0.634
2  GAACCAAGGTGAATAGGTCGTTGATGAGTAGGCG  -0.0573
3  AGAATGAGGTTATTAAGATCAGCGAATTGCGGTC     0.18
4  TCTAGTTGGTCACGGAGGTCACACTCGACGGGTA     1.39

Alright, here's another sequence for you.
In: Give its PBM binding z-score value. Item: "TCAGACAGGTGAAGATAACTCAGGTACGCAGTCG"
Out: 0.4
